- Measurement target: T1, rat APJ receptor (rat, UniProt Q9JHG3 1-377)
- T1 sequence (looked up): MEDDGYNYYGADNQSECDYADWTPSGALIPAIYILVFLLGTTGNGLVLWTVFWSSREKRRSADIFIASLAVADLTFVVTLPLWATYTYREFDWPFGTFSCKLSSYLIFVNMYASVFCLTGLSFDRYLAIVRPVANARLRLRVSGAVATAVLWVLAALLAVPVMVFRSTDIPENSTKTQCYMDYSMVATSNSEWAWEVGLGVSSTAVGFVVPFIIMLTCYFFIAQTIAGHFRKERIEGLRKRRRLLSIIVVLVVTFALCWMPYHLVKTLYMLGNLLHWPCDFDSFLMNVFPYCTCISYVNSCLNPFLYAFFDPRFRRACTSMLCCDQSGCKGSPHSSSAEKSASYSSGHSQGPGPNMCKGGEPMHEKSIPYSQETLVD
- Assay procedure: cell-based or functional assay
Starred links: 1 amine or outer side, 2 acyl side, 3 side chain; linkers in the order of their positions; H or OH if unused. Non-standard residues stand in square brackets, D forms with d. Atz = 3-(1,2,3-triazol-4-yl)alanine, O=C([C@H](Cc1c[nH]nn1)N[*:1])[*:2]; Propanoyl(3-triazol-4-yl) = O=C(CCc1cn([*:1])nn1)[*:2]; dBip = N[C@H](Cc1ccc(-c2ccccc2)cc1)C(=O)O; Oic = O=C(O)[C@@H]1C[C@@H]2CCCC[C@@H]2N1; Phe(4-Cl) = N[C@@H](Cc1ccc(Cl)cc1)C(=O)O; Phe(4-I) = N[C@@H](Cc1ccc(I)cc1)C(=O)O; hArg = N=C(N)NCCCC[C@H](N)C(=O)O; Cha = N[C@@H](CC1CCCCC1)C(=O)O; NMeL = CN[C@@H](CC(C)C)C(=O)O; Nle = CCCC[C@H](N)C(=O)O
Overview of recorded EC50 Rat APJ Receptor for various binders

Binder	Output unit	EC50 Rat APJ Receptor
{20K‑mPEGReg-Propanoyl(3-triazol-4-yl)}-[hArg][dR]Q[hArg]P[dR][NMeL]SHKG[Oic][Phe(4-I)]P[dBip]-OH (also: 20 kDa PEG conjugate) [apelin polypeptide SEQ ID NO: 103]	µM	0.0522
Ac-[Atz](20K‑mPEG)KFRRQRP[hArg][Cha]SHKG[Oic][Nle]P[Phe(4-Cl)]-OH [apelin polypeptide SEQ ID NO: 105]	µM	0.000285
